Assay: in vitro
Conditions: African green monkey
Each record here notes measured CC50 at 5 days.

structureSmiles | CC50 at 5 days
CNC(=O)c1cc(Br)cc([N+](=O)[O-])c1N[C@@H]1CCCC[C@@H]1NC(=O)c1cccnc1 | > 100 µM
CNC(=O)c1cc(Br)cc([N+](=O)[O-])c1N[C@@H]1CCCC[C@@H]1NC(=O)c1cncc(O)c1 | > 100 µM
CNC(=O)c1cc(Br)cc([N+](=O)[O-])c1N[C@@H]1CCCC[C@@H]1NC(=O)c1cc(=O)[nH]c2ccccc12 | > 100 µM
